B1: FCHO1 (parent)
chain: HLELTRKLQDLIKDVLRYGEEQLK

# Variants of: B1
# Assay overview: protein stability index of a GFP-peptide fusion (GPS, HEK-293T) (PSI 1-6); higher = more stable;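 also: lentivirally expressed fusions sorted by FACS into six bins by GFP to DsRed ratio, PSI derived from sequencing read proportions per bin multiplied by bin number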
# Cond: c terminus: a fixed tail appended
Grouping rule (protein stability index): bin A = under 2, bin B = from 2 up to 3, bin C = 3 and over

[
  {
    "Variant name": "E3K",
    "Group label": "bin B"
  },
  {
    "Variant name": "L16A",
    "Group label": "bin A"
  },
  {
    "Variant name": "L11G",
    "Group label": "bin B"
  },
  {
    "Variant name": "D14Y",
    "Group label": "bin B"
  },
  {
    "Variant name": "E3C",
    "Group label": "bin B"
  },
  {
    "Variant name": "I12G",
    "Group label": "bin B"
  },
  {
    "Variant name": "E20S",
    "Group label": "bin C"
  },
  {
    "Variant name": "K13G",
    "Group label": "bin A"
  },
  {
    "Variant name": "R6P",
    "Group label": "bin A"
  },
  {
    "Variant name": "E20V",
    "Group label": "bin C"
  },
  {
    "Variant name": "R6Y",
    "Group label": "bin A"
  },
  {
    "Variant name": "L4F",
    "Group label": "bin C"
  },
  {
    "Variant name": "E3F",
    "Group label": "bin B"
  },
  {
    "Variant name": "E20G",
    "Group label": "bin B"
  },
  {
    "Variant name": "L23D",
    "Group label": "bin B"
  },
  {
    "Variant name": "I12L",
    "Group label": "bin A"
  },
  {
    "Variant name": "T5D",
    "Group label": "bin B"
  },
  {
    "Variant name": "E3N",
    "Group label": "bin C"
  },
  {
    "Variant name": "R17V",
    "Group label": "bin B"
  },
  {
    "Variant name": "L11K",
    "Group label": "bin B"
  },
  {
    "Variant name": "L16H",
    "Group label": "bin B"
  },
  {
    "Variant name": "D14G",
    "Group label": "bin A"
  },
  {
    "Variant name": "Y18Q",
    "Group label": "bin C"
  },
  {
    "Variant name": "Q22F",
    "Group label": "bin B"
  },
  {
    "Variant name": "Q22R",
    "Group label": "bin C"
  },
  {
    "Variant name": "Q9Y",
    "Group label": "bin C"
  },
  {
    "Variant name": "L23E",
    "Group label": "bin B"
  },
  {
    "Variant name": "V15R",
    "Group label": "bin B"
  }
]
